Hello, the source for this data is paper PMC4643373, in case you need it.

target: FMRP isoform 1 (FMRP ISO1) (human (title of cited purification …, UniProt Q06787 1-632)); experiment: fluorescence spectroscopy
Readout type: Kd (nM)
Provide the reading as a plain figure in nM.

What Kd value was documented for this binder, GGGUACGGGAGGGUAAGGCUGUGGGUCGCGUG (structured_RNA, 2-aminopurine replacing A5) [NR2B 2AP mRNA] ?
370
